Measured values drawn from patent US11932850B2 for this set.

Tested on: NSCLC cell lines
Details: each NSCLC cell line, regardless of EGFR or KRAS mutation status; one 4-hr transfection
measured property: IC50

IC50 lookup needed for CS3D (DNA GATTTACGGGAAATGCSCATTTCCC; cyclic decoy with two hexaethylene glycol linkers, further chemistry not given here) , thanks. ~300 nM

* * *

Tested on: 201T cells
Test: MTS cell viability assay, 201T
Format: cell-based, human
Conditions: 201T (WT EGFR); MTS 72 hours; read-out: IC50
measured property: IC50

IC50 lookup needed for CS3D (DNA GATTTACGGGAAATGCSCATTTCCC; cyclic decoy with two hexaethylene glycol linkers, further chemistry not given here) , thanks. ~0.3 µM

* * *

Tested on: H1975 cells
Test: MTS cell viability assay, H1975
Assay type: cell-based, human
Settings: H1975 (mutant EGFR); MTS 72 hours; read-out: IC50
pIC50: −log10 of the molar value.
measured property: pIC50

Find the measured pIC50: item CS3D (DNA GATTTACGGGAAATGCSCATTTCCC; cyclic decoy with two hexaethylene glycol linkers, further chemistry not given here) , target or system H1975 cells. ~6.52

* * *

Test system: A549 cells
measured property: IC50 (nM)
// units = nM; emit number, no label

IC50 lookup needed for CS3D (DNA GATTTACGGGAAATGCSCATTTCCC; cyclic decoy with two hexaethylene glycol linkers, further chemistry not given here) , thanks. 300

* * *

Tested on: 201T cells
Assay: MTS cell viability assay, 201T
Type: cell-based, human
Settings: 201T; EGFR WT, KRAS WT; MTS at 72 hours after transfection; read-out: CS3D IC50
measured property: IC50 (nM)
// units = nM; emit number, no label

IC50 lookup needed for CS3D (DNA GATTTACGGGAAATGCSCATTTCCC; cyclic decoy with two hexaethylene glycol linkers, further chemistry not given here) , thanks. 300
